# Assay details: Cytotoxicity in human THP-1 cells assessed as reduction in cell viability incubated for 48 hrs hrs by MTT assay
# Assay type: toxicity, cell-based
Test readout: CC50 at 48 h (µM)
Reply with just the number (in µM).

Qu. Give its CC50 at 48 h value. Item: `COc1cc(/C=N/Nc2ncnc3c(Nc4ccc(OCCCO)cc4)ncnc23)ccc1O`
Ans. 50

---
Qu. Give its CC50 at 48 h value. Item: `COc1cc(/C=N/Nc2ncnc3c(Nc4cccc(OCCCO)c4)ncnc23)ccc1O`
Ans. 25

* * *

# Assay details: Selectivity index, ratio of CC50 for human THP1 cells to IC50 for antitrypanosomal activity against Trypanosoma brucei brucei Lister 427 bloodstream forms
# Assay type: toxicity
# Condition: read-out: Ratio CC50/IC50
Test readout: selectivity ratio

Reference set (3 entries):
Qu. Give its selectivity ratio value. Item: `COc1cc(/C=N/Nc2ncnc3c(Nc4ccc(OCCCO)cc4)ncnc23)cc(OC)c1OC`
Ans. > 30

Qu. Give its selectivity ratio value. Item: `Oc1cc(/C=N/Nc2ncnc3c(Nc4cccc(OCc5ccncc5)c4)ncnc23)cc(O)c1O`
Ans. > 26

Qu. Give its selectivity ratio value. Item: `COc1cc(/C=N/Nc2ncnc3c(Nc4cccc(OCc5ccncc5)c4)ncnc23)cc(OC)c1O`
Ans. > 29

---
Qu. Give its selectivity ratio value. Item: `COc1ccc(/C=N/Nc2ncnc3c(Nc4cccc(OCCCO)c4)ncnc23)cc1OC`
Ans. > 37

Qu. Give its selectivity ratio value. Item: `OCCCOc1ccc(Nc2ncnc3c(N/N=C/c4cc(O)c(O)c(O)c4)ncnc23)cc1`
Ans. > 14

* * *

# Assay details: Cytotoxicity in human THP-1 cells assessed as reduction in cell viability incubated for 48 hrs hrs by MTT assay
# Type: toxicity, cell-based
Test readout: CC50 at 48 h (µM)
Reply with just the number (in µM).

Qu. Give its CC50 at 48 h value. Item: `COc1ccc(/C=N/Nc2ncnc3c(Nc4ccc(OCCCO)cc4)ncnc23)cc1OC`
Ans. 50

Qu. Give its CC50 at 48 h value. Item: `COc1ccc(/C=N/Nc2ncnc3c(Nc4ccc(OCCCO)cc4)ncnc23)cc1O`
Ans. 50

Okay, next one:
Qu. Give its CC50 at 48 h value. Item: `N=C(N)c1ccc(OCCCCCOc2ccc(C(=N)N)cc2)cc1`
Ans. 51.8

* * *

# Assay details: Cytotoxicity in human THP-1 cells assessed as reduction in cell viability incubated for 48 hrs hrs by MTT assay
# Format: toxicity, cell-based
Reported CC50 at 48 h values for a set of compounds

Reference set (2 entries):
Qu. Give its CC50 at 48 h value. Item: `COc1cc(/C=N/Nc2ncnc3c(Nc4cccc(OCc5ccncc5)c4)ncnc23)cc(OC)c1O`
Ans. > 100 µM

Qu. Give its CC50 at 48 h value. Item: `Oc1cc(/C=N/Nc2ncnc3c(Nc4cccc(OCc5ccncc5)c4)ncnc23)cc(O)c1O`
Ans. > 100 µM

---
Qu. Give its CC50 at 48 h value. Item: `NNc1ncnc2c(Nc3cccc(OCc4ccncc4)c3)ncnc12`
Ans. > 100 µM

* * *

Reported selectivity ratio values for a set of compounds
# Assay details: Selectivity index, ratio of CC50 for human THP1 cells to IC50 for antitrypanosomal activity against Trypanosoma brucei brucei Lister 427 bloodstream forms
# Type: toxicity
# Condition: read-out: Ratio CC50/IC50
// keep it numeric: no unit symbol after the value

Reference set (2 entries):
Qu. Give its selectivity ratio value. Item: `OCCCOc1ccc(Nc2ncnc3c(N/N=C/c4ccc(O)c(O)c4)ncnc23)cc1`
Ans. 5

Qu. Give its selectivity ratio value. Item: `COc1ccc(/C=N/Nc2ncnc3c(Nc4ccc(OCCCO)cc4)ncnc23)cc1OC`
Ans. 6

Okay, next one:
Qu. Give its selectivity ratio value. Item: `COc1cc(/C=N/Nc2ncnc3c(Nc4cccc(OCCCO)c4)ncnc23)cc(OC)c1O`
Ans. 4

* * *

# Assay details: Selectivity index, ratio of CC50 for human THP1 cells to IC50 for antitrypanosomal activity against Trypanosoma brucei brucei Lister 427 bloodstream forms
# Format: toxicity
# Condition: read-out: Ratio CC50/IC50
Reported selectivity ratio values for a set of compounds

Reference set (2 entries):
Qu. Give its selectivity ratio value. Item: `NNc1ncnc2c(Nc3ccc(OCCCO)cc3)ncnc12`
Ans. > 33

Qu. Give its selectivity ratio value. Item: `Oc1ccc(/C=N/Nc2ncnc3c(Nc4cccc(OCc5ccncc5)c4)ncnc23)cc1O`
Ans. > 58

Okay, next one:
Qu. Give its selectivity ratio value. Item: `NNc1ncnc2c(Nc3cccc(OCCCO)c3)ncnc12`
Ans. > 10

All figures here come from ChEMBL document CHEMBL5143753.
